tested on: CP211; experiment: qHTS profiling for inhibitors of Plasmodium falciparum proliferation (AID 504749); further: nearly all actives have a fitted effect of over 60% in size; further: potency means the concentration at half of the fitted maximal effect; conditions: P. falciparum in erythrocytes, SYBR Green DNA, 72 h; series mostly up to 28.7 µM
Inconclusive results are not listed. The source made the active and inactive calls. The call rests on the fitted dose curve; in most records, active means well fitted inhibition curve with a large enough effect; inconclusive means small, poorly fitted or top-dose-only effect; inactive means flat fitted curve, though single readings scatter.
EXPERIMENTAL_READOUT: Potency

MOLECULE | MEASUREMENT
CCCCCCCCCCCCCCCCCC(=O)OCC(O)CO (stereo not given) | inactive
CCN(CC)C(=O)/C(C#N)=C/c1cc(O)c(O)c([N+](=O)[O-])c1 | inactive
CCCCCC=CCC=CCCCCCCCC(=O)OCC | inactive
O=C(O)c1cc2cc(Cc3cccnc3)ccc2o1 | inactive
O=S1(=O)c2cccc3cccc(c23)N1CCCN1CCN(c2ccc(F)cc2)CC1 | inactive
CC(=O)N(O)CCCCCNC(=O)CCC(=O)N(O)CCCCCNC(=O)CCC(=O)N(O)CCCCCN | inactive
CCC(C(=O)OCCN(CC)CC)c1ccccc1 (stereo not given) | inactive
CCCCc1nc(Cl)c(CO)n1Cc1ccc(-c2ccccc2-c2nn[nH]n2)cc1 | 6.75 µM (active)
COc1ccc(CCN2CCC(Nc3nc4ccccc4n3Cc3ccc(F)cc3)CC2)cc1 | 15.1 µM (active)
CC(C)NC[C@@H](O)COc1cccc2ccccc12 | inactive

###

system: PC49; test: qHTS profiling for inhibitors of Plasmodium falciparum proliferation (AID 504749); further: nearly all actives have a fitted effect of over 60% in size; settings: P. falciparum in erythrocytes, SYBR Green DNA, 72 h; series mostly up to 28.7 µM
Inconclusive results are not listed. The source made the active and inactive calls. Calls follow the shape of the dose curve; as a rule, active = well fitted inhibition curve with a large enough effect; inconclusive = small, poorly fitted or top-dose-only effect; inactive = flat fitted curve, though single readings scatter.
Outcomes: active, inactive

SMILES_RECORD | TESTED_TARGET | LABEL_VALUE
Cc1ccc(O)c2ncccc12 | PC49 | inactive
O=c1ccc2ccccc2o1 | PC49 | inactive
Cc1ncc(CSSCc2cnc(C)c(O)c2CO)c(CO)c1O | PC49 | inactive
Cc1cc(=O)n(-c2ccccc2)n1C | PC49 | inactive
CCCN1CCCC[C@H]1C(=O)Nc1c(C)cccc1C | PC49 | inactive
OCc1ccccc1O | PC49 | inactive
Nc1ccc(C(=O)Nc2ccccc2N)cc1 | PC49 | inactive
CN(C)CCOc1ccccc1Cc1ccccc1 | PC49 | active
CCOC(=O)n1ccn(C)c1=S | PC49 | inactive
C[C@@H]1C(=O)NC2=Nc3cccc(Cl)c3CN21 | PC49 | inactive
C#C[C@]1(OC(C)=O)CC[C@H]2[C@@H]3CCC4=C[C@@H](OC(C)=O)CC[C@@H]4[C@H]3CC[C@@]21C | PC49 | inactive
O=C1c2ccccc2C(=O)C1c1ccccc1 | PC49 | inactive
O=C(CCCN1CCC(O)(c2ccc(Br)cc2)CC1)c1ccc(F)cc1 | PC49 | active

###

assay: qHTS profiling for inhibitors of Plasmodium falciparum proliferation (AID 504749); further: nearly all actives have a fitted effect of over 60% in size;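 on activity, negative = inhibition: 0% = DMSO vehicle and full inhibition = artemisinin control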; conditions: P. falciparum in erythrocytes, SYBR Green DNA, 72 h; at 28.7 µM (top of the series); parasite line B
Records with an inconclusive call do not appear.
This listing pairs molecules with measured activity, negative = inhibition.

MOLECULE | UNIT | activity, negative = inhibition
O=C1OC(c2ccc(O)cc2)(c2ccc(O)cc2)c2ccccc21 | % | 10.2
Cc1c(C)n(Cc2ccccc2)c2ccc(C(=O)OCCN(C)C)cc12 | % | -2.16
Cc1ccc(C(=O)C(C)CN2CCCCC2)cc1 (stereo not given) | % | 6.22
Cc1ncc(CSSCc2cnc(C)c(O)c2CO)c(CO)c1O | % | -3.16
CC(=O)Oc1ccc(C(c2ccc(OC(C)=O)cc2)c2ccccn2)cc1 | % | 3.02
CCCn1c(=O)[nH]c(=O)c2[nH]cnc21 | % | 5.13
OCc1ccccc1O | % | 8.72
CCCCN1CCCC1C(=O)Nc1c(C)cc(C)cc1C (stereo not given) | % | -3.59
Cc1cccn2c(=O)c(-c3nnn[nH]3)cnc12 | % | 2.69
CN(C)/N=N/c1nc[nH]c1C(N)=O | % | 1.17
C[C@@H]1C(=O)NC2=Nc3cccc(Cl)c3CN21 | % | -2.54
O=C1CCC(c2ccc(-n3ccnc3)cc2)=NN1 | % | 14.3
CC(C)(CO)[C@@H](O)C(=O)NCCCO | % | -1.02
CC(C)COC(=O)OCN1C(=O)CN(CCN2CC(=O)N(COC(=O)OCC(C)C)C(=O)C2)CC1=O | % | 8.61
CC(=O)Oc1ccc(C(=C2CCCCC2)c2ccc(OC(C)=O)cc2)cc1 | % | 9.72
C[C@]12CCC(=O)C=C1CC[C@H]1[C@@H]3CC[C@](O)(C(=O)CO)[C@@]3(C)C[C@H](O)[C@@]12F | % | 9.81
CCC(=O)c1c(O)cc(O)cc1O | % | 0.647
CCCN1CCCC[C@H]1C(=O)Nc1c(C)cccc1C | % | 10.7
O=C(CCN1CCC(c2ccccc2)C1)c1ccc2c(c1)OCCO2 (stereo not given) | % | 1.82
O=C(O)CNC(=O)c1ccccc1 | % | 10.3
O=C(Nc1ccc(Cl)c(Cl)c1)C1CC1 | % | -1.73
C[C@@H]1C[C@H]2[C@@H]3CCC4=CC(=O)C=C[C@]4(C)[C@@]3(F)[C@@H](O)C[C@]2(C)[C@H]1C(=O)CO | % | -8.33
CC1(C)CCC(NC(=O)[C@@H](N)CCC(=O)O)CC1 | % | 10.3
CN1C(CCl)Nc2cc(Cl)c(S(N)(=O)=O)cc2S1(=O)=O (stereo not given) | % | -11.6
COc1cc2c(cc1OC)C(C(C(=O)N(CCc1ccc(OC)c(OC)c1OC)CCc1ccc(OC)c(OC)c1OC)c1ccccc1)=NCC2 (stereo not given) | % | -1.99
c1ccc(CNCCNCc2ccccc2)cc1 | % | 5.37
O=C(O)CCCCC(=O)O | % | 5.83
CCOC(=O)OC(C)OC1=C(C(=O)Nc2ccccn2)N(C)S(=O)(=O)c2ccccc21 (stereo not given) | % | 19.4
CC(O)C(=O)O (stereo not given) | % | 5.39
CCOC(=O)c1cccc(N)c1 | % | 6.86
Cc1cc(O)c(C(C)C)cc1Cl | % | 11.2
Cc1c(C(N)=O)cc([N+](=O)[O-])cc1[N+](=O)[O-] | % | -2.31
O=S1(=O)c2cccc3cccc(c23)N1CCCN1CCN(c2ccc(F)cc2)CC1 | % | -0.586
CCCCCCc1ccc(O)cc1O | % | 12.1
O=C(COc1ccc(Cl)cc1)N1CCN(Cc2ccc3c(c2)OCO3)CC1 | % | 10.8
C#C[C@]1(OC(C)=O)CC[C@H]2[C@@H]3CCC4=C[C@@H](OC(C)=O)CC[C@@H]4[C@H]3CC[C@@]21C | % | -19.2
CN1C2CCC1CC(OC(=O)c1c[nH]c3ccccc13)C2 (stereo not given) | % | 3.24
CCN1CCN(c2cc3c(cc2F)c(=O)c(C(=O)O)cn3C2CC2)CC1 | % | -3.41
CN(C)CCOc1ccccc1Cc1ccccc1 | % | -12.1
N[C@H](CO)C(=O)O | % | -23.4
CC(=O)OCC(=O)NCCCOc1cccc(CN2CCCCC2)c1 | % | 8.13
CC(C)(Oc1ccc(Cl)cc1)C(=O)O | % | 14.8
CN=C(NC#N)NCCSCc1csc(N=C(N)N)n1 | % | -0.371
Nc1cc(Cl)c(NC2=NCCN2)c(Cl)c1 | % | 15.3
c1ccc(OCc2ccc(CCCN3CCOCC3)cc2)cc1 | % | 8.4
Nc1ccc(C(=O)O)cc1 | % | 4.76
CCCCCCCCCCCCCCCCOP(=O)([O-])OCC[N+](C)(C)C | % | 12.3
Nc1ccc(/C=C/c2ccc(N)cc2S(=O)(=O)O)c(S(=O)(=O)O)c1 | % | 7.68
CCN1CCCC1=O | % | 11.2
C=CCc1ccc(O)c(OC)c1 | % | 1.91

###

assay: Drug repurposing screens with cells derived from glioblastoma tumor samples (AID 1345199); settings: GBM patient neurospheres viability, ATP luminescence, 48 h; at 21.2 µM (top of the series); tumour line D; further: on the % scale 0 is the no-effect control and ±100 the full control effect; nearly all actives have a fitted effect of over 40% in size
Records with an inconclusive call do not appear.
Returns: string. Value is MET if measured activity, negative = cell killing is below -20%, and NOT MET if it is greater than or equal to it.

COMPOUND | LABEL_VALUE
CC1(C)O[C@@H]2C[C@H]3[C@@H]4CCC5=CC(=O)CC[C@]5(C)[C@@]4(F)[C@@H](O)C[C@]3(C)[C@]2(C(=O)CCl)O1 | NOT MET
CC(=O)CC(c1ccc([N+](=O)[O-])cc1)c1c(O)c2ccccc2oc1=O (stereo not given) | NOT MET
C/C=C(/C(=C/C)c1ccc(O)cc1)c1ccc(O)cc1 | MET
CC(=O)OCC(=O)[C@@]1(O)[C@H](C)C[C@H]2[C@@H]3CCC4=CC(=O)C=C[C@]4(C)[C@@]3(F)[C@@H](O)C[C@@]21C | NOT MET
CC1(C)O[C@@H]2C[C@H]3[C@@H]4C[C@H](F)C5=CC(=O)CC[C@]5(C)[C@H]4[C@@H](O)C[C@]3(C)[C@]2(C(=O)CO)O1 | MET
CCN(CC)C(=O)N1CCN(C)CC1 | MET
O=C1c2ccccc2C(=O)C1c1ccccc1 | NOT MET
NCCCC[C@H](N[C@@H](CCc1ccccc1)C(=O)O)C(=O)N1CCC[C@H]1C(=O)O | NOT MET
CCOC(=O)n1ccn(C)c1=S | NOT MET
COc1ccc(OC)c(C(O)CNC(=O)CN)c1 (stereo not given) | NOT MET

Value source: PubChem BioAssay (NCATS)
